- Measured target: Human recombinant PDE10A (hPDE10A) (Homo sapiens)
- Construct: His tag (inferred from metal chelate purification); made in house; host or cells: Sf9 insect cells (baculovirus)
- Sequence (Q9Y233 267-1055): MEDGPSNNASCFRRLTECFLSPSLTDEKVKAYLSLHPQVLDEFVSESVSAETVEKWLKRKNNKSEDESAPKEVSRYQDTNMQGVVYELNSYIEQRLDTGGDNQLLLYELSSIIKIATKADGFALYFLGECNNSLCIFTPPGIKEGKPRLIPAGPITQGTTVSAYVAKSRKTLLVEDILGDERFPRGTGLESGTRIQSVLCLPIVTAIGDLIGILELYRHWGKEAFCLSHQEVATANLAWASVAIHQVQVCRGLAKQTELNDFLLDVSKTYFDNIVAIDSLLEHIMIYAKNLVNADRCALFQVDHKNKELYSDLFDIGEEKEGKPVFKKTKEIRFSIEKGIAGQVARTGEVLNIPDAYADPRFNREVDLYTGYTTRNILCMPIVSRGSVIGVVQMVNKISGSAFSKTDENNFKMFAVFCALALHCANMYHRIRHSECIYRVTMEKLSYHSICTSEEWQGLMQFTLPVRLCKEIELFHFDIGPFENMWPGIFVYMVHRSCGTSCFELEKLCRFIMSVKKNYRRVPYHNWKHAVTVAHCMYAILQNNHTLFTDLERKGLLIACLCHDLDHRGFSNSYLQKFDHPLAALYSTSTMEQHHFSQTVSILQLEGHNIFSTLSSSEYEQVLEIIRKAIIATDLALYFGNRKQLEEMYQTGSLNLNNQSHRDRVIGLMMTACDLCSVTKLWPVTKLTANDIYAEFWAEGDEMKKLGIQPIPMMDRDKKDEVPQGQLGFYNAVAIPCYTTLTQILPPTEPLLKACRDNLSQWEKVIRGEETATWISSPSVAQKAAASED
- Assay protocol: In vitro assay PDE10A, human clone (SPA, 3H-cAMP hydrolysis)
- Format: biochemical
- Condition info: human clone (h), default; read-out: hPDE10A2 pIC50 (converted)
Recorded log10 IC50 for the following compounds
Assay metric: log10 IC50 (log10 of the value in nM)

{"Substance smiles": "Cc1cc(Cl)cc(C(=O)N2CC[C@@H](C)[C@H](c3cc(C(F)F)nc4ncnn34)C2)c1", "Measured target": "Human recombinant PDE10A (hPDE10A) (Homo sapiens)", "log10 IC50": 1.42}
{"Substance smiles": "C[C@@H]1CCN(C(=O)c2cocn2)C[C@H]1c1cc(C(F)F)nc2ncnn12", "Measured target": "Human recombinant PDE10A (hPDE10A) (Homo sapiens)", "log10 IC50": 3.66}
{"Substance smiles": "C[C@@H]1CCN(C(=O)c2cnn(C)c2)C[C@H]1c1cc(C(F)F)nc2ncnn12", "Measured target": "Human recombinant PDE10A (hPDE10A) (Homo sapiens)", "log10 IC50": 2.66}
{"Substance smiles": "C[C@@H]1CCN(C(=O)c2cccc3c2OC(F)(F)O3)C[C@H]1c1cc(C(F)F)nc2ncnn12", "Measured target": "Human recombinant PDE10A (hPDE10A) (Homo sapiens)", "log10 IC50": 2.94}
{"Substance smiles": "C[C@@H]1CCN(C(=O)c2ccn3cccc3c2)C[C@H]1c1cc(C(F)F)nc2ncnn12", "Measured target": "Human recombinant PDE10A (hPDE10A) (Homo sapiens)", "log10 IC50": 1.29}
{"Substance smiles": "COc1cc(C(=O)N2CC[C@@H](C)[C@H](c3cc(C(F)F)nc4ncnn34)C2)ccc1F", "Measured target": "Human recombinant PDE10A (hPDE10A) (Homo sapiens)", "log10 IC50": 2.57}
{"Substance smiles": "COc1nc(N)ncc1C(=O)N1CC[C@@H](C)[C@H](c2cc(C(F)F)nc3ncnn23)C1", "Measured target": "Human recombinant PDE10A (hPDE10A) (Homo sapiens)", "log10 IC50": 3.36}
{"Substance smiles": "COc1c(C)cc(C(=O)N2CC[C@@H](C)[C@H](c3cc(C(F)F)nc4ncnn34)C2)cc1C", "Measured target": "Human recombinant PDE10A (hPDE10A) (Homo sapiens)", "log10 IC50": 1.92}
